test: NCI Yeast Anticancer Drug Screen. Data for the rad50 strain (AID 155);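 further: 0% = growth of vehicle-only cultures of the same strain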; conditions: S. cerevisiae rad50 strain growth inhibition; at 50.0 µM (retest, dose inferred, filed as 5.0); hits give high values
Compounds without any hit were thinned out: in the full panel of roughly 79,000, 15% have a hit.
Returns one of satisfied or not satisfied; satisfied when growth inhibition is >= 50%.

[
  {
    "Compound": "Cc1cc(C)c(N2C(=O)CC(Sc3ccccc3N)C2=O)c(C)c1 (stereo unspecified)",
    "Class": "not satisfied"
  },
  {
    "Compound": "COc1cccc(C(c2cc3c(cc2O)OCO3)N2CCOCC2)c1OC (stereo unspecified)",
    "Class": "not satisfied"
  },
  {
    "Compound": "COc1cc(/C=C/c2sc3ccccc3[n+]2C)ccc1N(C)C",
    "Class": "not satisfied"
  },
  {
    "Compound": "Cc1ccc(Nc2n[nH]c(=S)s2)cc1",
    "Class": "satisfied"
  },
  {
    "Compound": "CCOC(=O)[C@]1(Br)CC[C@@]1(Br)C(=O)OCC",
    "Class": "satisfied"
  },
  {
    "Compound": "CCOC(=O)C1=C(C)NC(C)=C(C(=O)OCC)C1c1ccccc1Cl",
    "Class": "satisfied"
  }
]

====

experiment: NCI Yeast Anticancer Drug Screen. Data for the mec2-1 strain (AID 157); conditions: S. cerevisiae mec2-1 strain, at 100.0 µM
The panel holds about 79,000 compounds, 15% with a hit somewhere; the sample as a whole holds those more often. Active and inactive are the calls of the source. No stated cut-off is given here; in the data, active means growth inhibition above about 70%; inactive means the rest.
Classes used: True = active, False = inactive

[
  {
    "Compound": "On1cnc(=S)c2[nH]cnc21",
    "Class": "False"
  },
  {
    "Compound": "NP1(Oc2ccc(F)cc2)=NP(N)(Oc2ccc(F)cc2)=NP(Oc2ccc(F)cc2)(Oc2ccc(F)cc2)=N1 (stereo unspecified)",
    "Class": "True"
  },
  {
    "Compound": "N#C/C(=C/N1C(=O)/C(=C/c2ccc([N+](=O)[O-])cc2)SC1=S)c1nc2ccccc2s1",
    "Class": "False"
  },
  {
    "Compound": "COc1ccc2oc(-c3ccc(Cl)cc3)c(N3CCN(C)CC3)c2c1",
    "Class": "True"
  },
  {
    "Compound": "O=C1C=CC(=Nc2ccccc2)c2ccccc21",
    "Class": "False"
  },
  {
    "Compound": "NNC(=S)Nc1cccc(Cl)c1",
    "Class": "True"
  },
  {
    "Compound": "CCc1nc(N)nc(N)c1-c1ccc(NCCCCCCN)c([N+](=O)[O-])c1",
    "Class": "False"
  },
  {
    "Compound": "[N-]=[N+]=NC(c1ccccc1)(c1ccccc1)c1ccccc1",
    "Class": "True"
  },
  {
    "Compound": "OC(CN1CCCCC1)c1cc(Cl)c(Cl)c(Cl)c1 (stereo unspecified)",
    "Class": "False"
  },
  {
    "Compound": "NNC(=S)Nc1cccc2ccccc12",
    "Class": "False"
  },
  {
    "Compound": "O=C(O)c1cccc2cccc(-c3c4ccc(=O)cc-4oc4cc(O)ccc34)c12",
    "Class": "True"
  }
]

====

test: NCI Yeast Anticancer Drug Screen. Data for the mlh1 rad18 strain (AID 175); details: S. cerevisiae mlh1 rad18 strain growth inhibition; at 5.0 µM (retest, dose inferred, filed as 0.5)
Compounds without any hit were thinned out: in the full panel of roughly 79,000, 15% have a hit. Active and inactive are the calls of the source. Cut-off read from the data, not from the text of the source: active = growth inhibition above about 70%; inactive = the rest.
Classes used: 1 (yes) (active), 0 (no) (inactive)

[
  {
    "Molecule": "CCN(CC)CC(O)C1CCC(c2ccccc2)CC1 (stereo not drawn)",
    "Class": "0 (no)"
  },
  {
    "Molecule": "CCCCCCSc1nc(COC(=O)NC)c(COC(=O)NC)n1C",
    "Class": "0 (no)"
  },
  {
    "Molecule": "COc1ccc(SCc2cc(OC)ccc2OC)cc1",
    "Class": "0 (no)"
  },
  {
    "Molecule": "N#C/C(=C/N1C(=O)/C(=C/c2ccc([N+](=O)[O-])cc2)SC1=S)c1nc2ccccc2s1",
    "Class": "0 (no)"
  },
  {
    "Molecule": "Cc1cc(OCc2ccccc2)ccc1[N+](=O)[O-]",
    "Class": "0 (no)"
  },
  {
    "Molecule": "COc1ccc(N)c2c1C(=O)c1ccccc1C2=O",
    "Class": "0 (no)"
  },
  {
    "Molecule": "O=C1C=CC(=O)N1c1ccc(I)cc1",
    "Class": "0 (no)"
  },
  {
    "Molecule": "Cc1cccc2c1N=C(C(F)(F)F)CC2=O",
    "Class": "0 (no)"
  },
  {
    "Molecule": "NCc1c(O)ccc2ccccc12",
    "Class": "0 (no)"
  },
  {
    "Molecule": "NC(=O)N1c2ccccc2C=Cc2ccccc21",
    "Class": "0 (no)"
  },
  {
    "Molecule": "Cc1cc(N=C2C=CC(=[N+](C)C)C=C2)c(N)cc1N",
    "Class": "0 (no)"
  },
  {
    "Molecule": "Cc1ccc(S(=O)(=O)N/N=C/C2(c3ccccc3)c3ccccc3-c3ccccc32)cc1",
    "Class": "1 (yes)"
  },
  {
    "Molecule": "C/C(=N\\NC(=S)NC1CCCC1)c1ccccn1",
    "Class": "0 (no)"
  },
  {
    "Molecule": "CCOC(=O)Nc1ccc2c(c1)Cc1ccccc1-2",
    "Class": "0 (no)"
  },
  {
    "Molecule": "CCCc1[nH]nc(C(N)=O)c1N=NN(C)C",
    "Class": "0 (no)"
  },
  {
    "Molecule": "COCCCN(Cc1cc(OC)c(OC)c(OC)c1)C(=S)Nc1cccc(Cl)c1",
    "Class": "0 (no)"
  },
  {
    "Molecule": "Nc1nc2c(c(=O)[nH]1)NC(CCNc1ccc(C(=O)O)cc1)CN2 (stereo not drawn)",
    "Class": "0 (no)"
  },
  {
    "Molecule": "CO[C@@]12[C@H](COC(N)=O)C3=C(C(=O)C(C)=C(N)C3=O)N1C[C@@H]1N[C@@H]12",
    "Class": "1 (yes)"
  },
  {
    "Molecule": "Cn1ncc2cc3c(Nc4ccc(Cl)cc4)cccc3nc21",
    "Class": "0 (no)"
  },
  {
    "Molecule": "NNC(=S)Nc1cccc(Cl)c1",
    "Class": "0 (no)"
  },
  {
    "Molecule": "CN(C)CCNc1cccc2sc3ccc(O)cc3c(=O)c12",
    "Class": "0 (no)"
  },
  {
    "Molecule": "CC[C@@]1(OC(=O)CCC(=O)O)C(=O)OCc2c1cc1n(c2=O)Cc2cc3ccccc3nc2-1",
    "Class": "0 (no)"
  },
  {
    "Molecule": "BrCc1ccccc1C(c1ccccc1)c1ccccc1",
    "Class": "1 (yes)"
  },
  {
    "Molecule": "O=C1NC(c2c(Cl)cccc2Cl)Nc2ccccc21 (stereo not drawn)",
    "Class": "1 (yes)"
  },
  {
    "Molecule": "COc1ccc2c(c1)[nH]c1c(/C=C/c3ccccc3)nccc12",
    "Class": "0 (no)"
  },
  {
    "Molecule": "O=C1C(Cl)=C(Cl)C(Cl)(Cl)C(Cl)C1(Cl)Cl (stereo not drawn)",
    "Class": "0 (no)"
  },
  {
    "Molecule": "Cc1cc(C)c(N2C(=O)CC(Sc3ccccc3N)C2=O)c(C)c1 (stereo not drawn)",
    "Class": "0 (no)"
  },
  {
    "Molecule": "CN(C)Cc1cccc(CN(C)C)[c]1[Sn]([Br])([c]1ccccc1)[c]1ccccc1",
    "Class": "0 (no)"
  },
  {
    "Molecule": "O=[N+]([O-])/C(C(Cl)=C(Cl)Cl)=C1/OCCS1",
    "Class": "0 (no)"
  },
  {
    "Molecule": "CC[C@@]1(OC(=O)CN(C)C)C(=O)OCc2c1cc1n(c2=O)Cc2cc3c(N)cccc3nc2-1",
    "Class": "0 (no)"
  },
  {
    "Molecule": "CN(CC(=O)O)c1ccc(/C=C/c2ccnc3ccccc23)cc1",
    "Class": "0 (no)"
  },
  {
    "Molecule": "COc1cc(/C=C/c2sc3ccccc3[n+]2C)ccc1N(C)C",
    "Class": "0 (no)"
  },
  {
    "Molecule": "O=Cc1coc2ccccc2c1=O",
    "Class": "0 (no)"
  },
  {
    "Molecule": "Nc1cc(S(N)(=O)=O)ccc1SSc1ccc(S(N)(=O)=O)cc1N",
    "Class": "0 (no)"
  },
  {
    "Molecule": "Cc1nc2c(ncn2CCO)c(=O)[nH]1",
    "Class": "0 (no)"
  },
  {
    "Molecule": "CC(C)(O)c1ccccc1C(c1ccccc1)c1ccccc1",
    "Class": "0 (no)"
  },
  {
    "Molecule": "S=C1SCN(CCc2ccccc2)CN1CCc1ccccc1",
    "Class": "0 (no)"
  },
  {
    "Molecule": "CCC(=O)N(c1ccccc1)C(C)CN1CCC(O)(c2cccc(C(F)(F)F)c2)CC1 (stereo not drawn)",
    "Class": "0 (no)"
  },
  {
    "Molecule": "CCOC(=O)CNC(=O)c1[nH]cnc1/N=N/N(C)C",
    "Class": "0 (no)"
  },
  {
    "Molecule": "Cc1ccc(S(=O)(=O)N(C)c2ccc(Cl)cc2C2=NCCc3ccccc32)cc1",
    "Class": "0 (no)"
  },
  {
    "Molecule": "CCCCC(CC)C(=O)Oc1ccc(C(=O)c2ccccc2)c(O)c1 (stereo not drawn)",
    "Class": "0 (no)"
  },
  {
    "Molecule": "CCC(NC(C)c1ccccc1)C(=O)c1ccc(OCc2ccccc2)c(OCc2ccccc2)c1 (stereo not drawn)",
    "Class": "0 (no)"
  },
  {
    "Molecule": "O=C1CSC(=S)N1Cc1ccc(Cl)cc1Cl",
    "Class": "0 (no)"
  },
  {
    "Molecule": "CCOC(=O)C1=C(C)NC(C)=C(C(=O)OCC)C1c1ccccc1Cl",
    "Class": "0 (no)"
  },
  {
    "Molecule": "O=S(=O)(N/N=C/c1cccc(Cl)c1)c1ccccc1",
    "Class": "0 (no)"
  },
  {
    "Molecule": "Cc1ccc(N=Nc2ccc(O)c(C)c2)cc1",
    "Class": "0 (no)"
  },
  {
    "Molecule": "O=C1c2c(O)cccc2-c2nn(CCNCCO)c3ccc(NCCNCCO)c1c23",
    "Class": "0 (no)"
  },
  {
    "Molecule": "Cc1c2cc[n+](CCN3CCCCC3)cc2c(C)c2c1[nH]c1ccc(O)cc12",
    "Class": "0 (no)"
  }
]
